Answer each item with its documented koff.
Target system: T1, Human ROR1-ECD-his (Acro Biosystems RO1-H522y) (human, UniProt Q01973 30-406)
T1 construct: extracellular domain; bought protein; also called hROR1-ECD-his; hu-ROR1-ECD-his
T1 sequence (Q01973 30-406): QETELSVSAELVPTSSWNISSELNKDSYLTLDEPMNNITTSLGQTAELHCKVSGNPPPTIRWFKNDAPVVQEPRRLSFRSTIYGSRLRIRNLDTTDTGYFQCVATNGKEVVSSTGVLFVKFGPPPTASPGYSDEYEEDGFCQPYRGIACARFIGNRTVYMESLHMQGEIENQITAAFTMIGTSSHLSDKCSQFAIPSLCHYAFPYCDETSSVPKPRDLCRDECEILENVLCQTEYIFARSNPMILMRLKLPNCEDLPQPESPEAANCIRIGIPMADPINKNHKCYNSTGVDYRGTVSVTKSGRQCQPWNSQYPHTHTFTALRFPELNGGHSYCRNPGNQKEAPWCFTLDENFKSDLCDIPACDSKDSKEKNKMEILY
Experiment notes: BLI, antibody on AHC sensor, ROR1-His 5-80 nM in solution

Prompt line: Annotate the binder PR007417 (antibody, V domains shown, bivalent form (HCAb) variant of PR005340, no light chain) VH: EVQLVESGGGLVKPGGSLRLSCAASGFTFSDFYMSWIRQAPGKGLEWISYISSSGSTRYYADSVKGRFTISRDNAKNSLYLQMNSLRAEDTAIYYCARDIPSSSSDWVDLQFDYWGQGTLVTVSS with its measured koff.
Response line: 4.86e-05 s⁻¹

Prompt line: Identify measured koff corresponding to PR005340 (antibody, human IgG1, V domains shown, HCAb (heavy chain-only, human IgG1 Fc), no light chain) VH: EVQLVESGGGLVKPGGSLRLSCAASGFTFSDYYMSWIRQAPGKGLEWISYISSSGSTIHYADSVKGRFTISRDNAKNSLYLQMNSLRAEDTAIYYCARDIPSSSSDWVSLQFDYWGQGTLVTVSS
Response line: 0.000171 s⁻¹

Prompt line: For the binder PR005338 (antibody, human IgG1, V domains shown, HCAb (heavy chain-only, human IgG1 Fc), no light chain) VH: EVQLVESGGGLVKPGGSLRLSCAASGFTFSDYYMSWIRQAPGKGLEWISYISSSGTTIHYADSVKGRFTISRDNAKNSLYLQMNSLRTEDTAVYYCARDAPSSNSDWVSLQFDYWGQGTLVTVSS , give its measured koff value.
Response line: 0.000316 s⁻¹

Prompt line: Input PR007424 (antibody, V domains shown, bivalent form (HCAb) variant of PR005340, no light chain) VH: EVQLVESGGGLVKPGGSLRLSCAASGFTFSDYYMSWIRQAPGKGLEWISYIDSSGRPLAYADSVKGRFTISRDNAKNSLYLQMNSLRAEDTAIYYCARDMPSSSSDWVSLQFDYWGQGTLVTVSS , output reported koff.
Response line: 0.000284 s⁻¹
